Listed next: entries and their corresponding EC50.
# system_tested: T1, full-length human C1s (produced in house) (human, UniProt P09871 16-688)
# T1 construct: Called full-length; Partly auto-cleaved at R422-I423 on blots; also called HuC1s; Hu C1s
# T1 sequence: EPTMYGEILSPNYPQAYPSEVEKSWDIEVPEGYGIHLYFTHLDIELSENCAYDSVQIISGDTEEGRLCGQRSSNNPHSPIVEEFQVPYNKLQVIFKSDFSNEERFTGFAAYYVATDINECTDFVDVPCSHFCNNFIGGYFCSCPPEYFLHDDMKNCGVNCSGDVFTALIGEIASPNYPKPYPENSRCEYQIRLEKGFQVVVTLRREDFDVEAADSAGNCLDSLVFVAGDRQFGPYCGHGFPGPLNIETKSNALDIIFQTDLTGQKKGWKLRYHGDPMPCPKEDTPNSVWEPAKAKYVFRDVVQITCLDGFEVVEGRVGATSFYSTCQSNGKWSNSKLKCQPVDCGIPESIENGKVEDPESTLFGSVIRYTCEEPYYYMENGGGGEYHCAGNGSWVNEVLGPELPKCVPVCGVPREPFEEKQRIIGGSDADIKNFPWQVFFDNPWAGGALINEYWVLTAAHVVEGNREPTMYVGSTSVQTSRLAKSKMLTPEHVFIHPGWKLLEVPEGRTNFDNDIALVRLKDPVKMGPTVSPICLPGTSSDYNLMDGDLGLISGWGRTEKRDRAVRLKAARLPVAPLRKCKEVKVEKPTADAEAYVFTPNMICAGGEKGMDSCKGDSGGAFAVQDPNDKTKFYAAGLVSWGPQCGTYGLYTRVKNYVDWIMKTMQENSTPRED
# test_description: ELISA, plate coated with 200 ng/well HuC1s, OD450nm
reported_property: EC50 (ng/mL)

INSERT INTO assay_data (binder, unit_of_measurement, value_measured) VALUES
  ('Anti-C1s antibody 2-7 (antibody, human IgG1, kappa, V domains shown, the HC/LC entries may hold it too; also called clone 2-7) VH: EVKLEESGGGLVPPGGSMKLSCVASGFTFSNYFMNWVRQSPEKGLEWVAEIRLKFTNYATHYAESVEGRFTISRDDSKSSVYLQMNNLRAEDTGIYYCTRDYGSRNGYFDYWGQGTTLTVSS VL: DIVMTQAAPSVPVTPGESVSISCRSSKSLLHSNGNTFLYWFLQRPGQSPQLLIYRMSNLASGVPDRFSGSGSGTAFTLRVSRVEAEDVGIYYCMQHLEYPYTFGGGTKLEIKT', 'ng/mL', 6),
  ('Anti-C1s antibody hz2-8 (H1L2 G80A/T82A) (antibody, V domains shown, Humanized variant with G80A and T82A in HC CDR2 (already in the entry), human IgG1 / kappa) VH: QVQLVQSGAEVKKPGASVKVSCKASGFNIKEYYMHWVRQAPEQGLEWMGWIDPENADAIYAQKFQGRVTITADTSTNTAYMELSSLRSEDTAVYYCARSRLFFAYWGQGTLVTVSS VL: DIQMTQSPKSLSASVGDRVTITCRASQDVRTALDWYQQKPGQSPKLLIYSASYRYSGVPSRFSGSGSGTDFTLTISSLQPEDFATYYCQQQYTTPYTFGQGTKLEIKR', 'ng/mL', 4),
  ('Anti-C1s antibody hz2-7(H1L2) (antibody, V domains shown, Humanized, human IgG1 / kappa; also called hz2-7(1L2)) VH: EVQLLESGGGLVQPGGSLRLSCAASGFTFSNYFMNWVRQAPGKGLEWVSEIRLKFTNYATHYADSVKGRFTISRDDSKSTLYLQMNSLRAEDTAVYYCTRDYGSRNGYFDYWGQGTLVTVSS VL: DIVMTQTPLSLPVTPGEPASISCRSSKSLLHSNGNTFLYWFLQKPGQSPQLLIYRMSNLASGVPDRFSGSGSGTDFTLKISRVEAEDVGVYYCMQHLEYPYTFGGGTKLEIKR', 'ng/mL', 6),
  ('Anti-C1s antibody 2-8 (antibody, V domains shown, the HC/LC entries may hold it too; also called clone 2-8) VH: EVQLQQSGAELVRPGALVKLSCKASGFNIKEYYMHWVKQRPEQGLEWIGWIDPENGDTIYDPKFQGKASITADTSSNTAYLQLSSLTSEDTAVYYCARSRLFFAYWGQGTLVTVSA VL: DIVMTQSHKFMSTSVGDRVSFTCKASQDVRTAVDWYQQKPGQSPKLLIYSASYRYTGVPDRFTGTGSGTDFTFTISSVQAEDLAVYFCQQQYTTPYTFGGGTKLEIKT', 'ng/mL', 5);
